# experiment: PBS solubility
# experimental-context: PBS, aqueous buffer
Catalogue of solubility values

Field: example entries. Status: answers known.
FC(F)(F)c1ccc(-c2n[nH]c3ccccc23)cc1 ... < 1 µM
COc1ccc(-c2n[nH]c3ccccc23)cc1 ... < 1 µM
CCOC(=O)c1c2ccccc2nn1Cc1ccc(Cl)cc1 ... < 1 µM
O=C(O)c1c2ccccc2nn1Cc1ccc(Cl)cc1 ... 503 µM

Name the recorded solubility for COC(=O)Cn1nc(-c2ccccc2)c2cccc(C(F)(F)F)c21 . < 1 µM

====

# experiment: Plasma protein binding
# experimental-context: % bound in human plasma
The entries below come with measured Plasma Protein Binding values attached.
Response body: numeric value in %, unit text excluded.

COC(=O)Cn1nc(-c2ccccc2OC)c2ccccc21 [Compound 49835850] ... 92
COC(=O)Cn1nc(-c2cccc(C)c2)c2ccccc21 [Compound 49835823] ... 98
COC(=O)Cn1nc(-c2cccc(OC)c2)c2ccccc21 [Compound 49835877] ... 95
COC(=O)Cn1nc(-c2ccc(C(F)(F)F)cc2)c2ccccc21 [Compound 49835854] ... 97

For CNC(=O)Cn1nc(-c2ccccc2)c2ccccc21 [Compound 13330955] , what is its reported Plasma Protein Binding? 93

Report Plasma Protein Binding for COC(=O)Cn1nc(-c2ccc(F)cc2)c2ccccc21 [Compound 49835876] please. 93

Given the entry COC(=O)Cn1nc(-c2ccccc2)c2cc(C)ccc21 [Compound 49835874] , report its measured Plasma Protein Binding. 95

====

# experiment: Plasma stability
# experimental-context: % remaining in human plasma after a 5-hour incubation
Lab note: anything with Plasma Stability below 90% is marked true (1); values at 90% or higher are marked false (0).

O=C(Cn1nc(-c2ccccc2)c2ccccc21)N1CCc2ccccc2C1 [Compound 20877557] ... false (0)
CC(C)OC(=O)Cn1nc(-c2ccccc2)c2ccccc21 [Compound 49835820] ... true (1)
COC(=O)Cn1nc(-c2ccc(C)cc2)c2ccccc21 [Compound 46856255] ... true (1)
c1ccc(-c2n[nH]c3ccccc23)cc1 [Compound 300385] ... false (0)
COC(=O)Cn1nc(-c2ccccc2)c2ccc(C)cc21 [Compound 49835872] ... true (1)
c1ccc(-c2nn(Cc3ncco3)c3ccccc23)cc1 [Compound 49835836] ... false (0)
O=C(Cn1nc(C(=O)N2CCCCC2)c2ccccc21)N1CCOCC1 [Compound 46378661] ... false (0)
COC(=O)Cn1nc(-c2ccc(Cl)cc2)c2ccccc21 [Compound 46856253] ... true (1)
CNC(=O)Cn1nc(-c2ccccc2)c2ccccc21 [Compound 13330955] ... false (0)
COC(=O)Cn1nc(-c2ccccc2)c2cccc(C(F)(F)F)c21 [Compound 49835842] ... true (1)

Answer whether the compound CCOC(=O)c1nn(Cc2ccc(Cl)cc2)c2ccccc12 [Compound 12312246] has Plasma Stability strictly less than 90% false (0)

Answer whether the compound COCCn1nc(-c2ccccc2)c2ccccc21 [Compound 49835825] has Plasma Stability strictly less than 90% true (1)

Answer whether the compound COC(=O)Cn1nc(-c2ccccc2)c2ccc(OC)cc21 [Compound 49835812] has Plasma Stability strictly less than 90% true (1)

Dear reviewer, please state whether O=C(Cn1nc(-c2ccccc2)c2cc(Cl)ccc21)N1CCOCC1 [Compound 20877381] has Plasma Stability strictly beneath 90%. false (0)

# check: Plasma Stability < 90% for Cc1nn(S(C)(=O)=O)c2ccccc12 [Compound 46856251] false (0)

Given the entry COC(=O)Cn1nc(-c2cccc(C)c2)c2ccccc21 [Compound 49835823] , would its reported Plasma Stability be below 90%? true (1)

API: query returns whether the compound falls strictly under 90% in Plasma Stability. Query: CCCNC(=O)Cn1nc(-c2ccccc2)c2cc(Cl)ccc21 [Compound 20877322] false (0)

Identify whether the compound COC(=O)Cn1nc(-c2ccccc2)c2cc(F)ccc21 [Compound 49835889] records Plasma Stability below 90%. true (1)

====

# experiment: IC50 values and selectivity of Table 10A (target yeast, anti-target human cytochrome)
# Type: biochemical
Measured IC50, listed per entry.
Give the value, in units of nM, as a plain number.

Here are 4 compounds together with their reported answers.
COC(=O)Cn1nc(-c2cccc([N+](=O)[O-])c2)c2ccccc21 ... 500
c1ccc(-c2nn(Cc3cnccn3)c3ccccc23)cc1 ... 630
COC(=O)Cn1nc(-c2cccc(OCCCC3CCCCC3)c2)c2ccccc21 ... 10
COC(=O)Cn1nc(-c2cccc(OCc3ccccc3)c2F)c2ccccc21 ... 200

Okay, now this compound:
Recorded IC50 of COC(=O)Cn1nc(-c2ccsc2)c2ccccc21 , please. 625

====

# target-of-assay: yeast (Saccharomyces cerevisiae)
# Construct: Mitochondrial membranes were prepared from yeast; endogenous in cells; host or cells: yeast (mitochondrial membranes)
# experiment: IC50 values and selectivity of Table 10A (target yeast, anti-target human cytochrome)
# Format: biochemical
# experimental-context: target yeast, anti-target human cytochrome
Attribute: Selectivity* (anti-target IC50)/(target IC50)
Reply with the value as a number alone.

Solved entries:
COC(=O)Cn1nc(-c2ccc(F)cc2F)c2ccccc21 ... 58.2
COC(=O)Cn1nc(-c2ccsc2)c2ccccc21 ... 48
COC(=O)Cn1nc(-c2ccccc2Cl)c2ccccc21 ... 32
COC(=O)Cn1nc(-c2ccccc2)c2cccc(C)c21 ... 40
COC(=O)Cn1nc(-c2cccc(C#N)c2)c2ccccc21 ... 96

For the compound COC(=O)Cn1nc(-c2cccc(OCCC(C)(C)C)c2)c2ccccc21 , what Selectivity* (anti-target IC50)/(target IC50) is on record? 50

Give its Selectivity* (anti-target IC50)/(target IC50) value. Item: Cc1cccc2c(-c3cc(C(F)(F)F)ccc3F)nn(Cc3nnn(C)n3)c12 160

====

# experiment: Plasma protein binding
# experimental-context: human, plasma
reported-endpoint: fraction unbound
Give your answer as a number; write no unit.

Cc1nn(S(C)(=O)=O)c2ccccc12 ... 0.37

So what's the measured fraction unbound for this one? COC(=O)Cn1nc(-c2cccc(F)c2)c2ccccc21 0.04

====

# experiment: Plasma stability
# experimental-context: % remaining in human plasma after a 5-hour incubation
Lab note: compare Plasma Stability with 80%, writing Met if less and Not met if equal or more.

Solved entries:
O=C(O)c1c2ccccc2nn1Cc1ccc(Cl)cc1 ... Not met
O=C(Cn1nc(-c2ccccc2)c2ccccc21)OC1CCC1 ... Met
COC(=O)Cn1nc(-c2ccc(C(F)(F)F)cc2)c2ccccc21 ... Met

Lab log: compare recorded Plasma Stability with 80%; is it strictly lower for COC(=O)Cn1nc(-c2ccc(F)cc2)c2ccccc21 ? Met

Hi there! Is Plasma Stability for CCOC(=O)Cn1nc(-c2ccccc2)c2ccccc21 below 80%, do you know? Met

Does this compound meet the criterion Plasma Stability < 80%? COC(=O)Cn1nc(C)c2ccccc21 Met

A record lists COC(=O)Cn1nc(-c2ccccc2C)c2ccccc21 . Is its Plasma Stability below 80%? Met

====

# experiment: Plasma stability
# experimental-context: % remaining in human plasma after a 5-hour incubation
Reported Plasma Stability values follow for various compounds
The answer is to be given in %; state only the numeric part.

The cases that follow already have their Plasma Stability on record.
CN(C)C(=O)Cn1nc(-c2ccccc2)c2ccccc21 ... 98
COC(=O)Cn1nc(-c2ccccc2)c2ccc(Cl)cc21 ... 90
COC(=O)Cn1c(-c2ccccc2)nc2ccccc21 ... 46
FC(F)(F)c1ccc(-c2n[nH]c3ccccc23)cc1 ... 79

Note: attention shifts to another entry.
Which Plasma Stability value belongs to COC(=O)Cn1nc(-c2ccccc2)c2ccc(F)cc21 ? 1.1

====

# target-of-assay: yeast (Saccharomyces cerevisiae)
# Construct: Mitochondrial membranes were prepared from yeast; endogenous in cells; host or cells: yeast (mitochondrial membranes)
# experiment: IC50 values and selectivity of Table 10A (target yeast, anti-target human cytochrome)
# Type: biochemical
# experimental-context: target is yeast
reported-endpoint: pIC50
Kindly note that pIC50 refers to -log10 of the concentration in mol/L and answer with the value alone.

COC(=O)Cn1nc(-c2ccc(F)cc2F)c2ccccc21 [Compound I-70] ... 6.56
COC(=O)Cn1nc(-c2ccccc2)c2c(C(F)(F)F)cccc21 [Compound I-89] ... 5.00
Cc1nnc(Cn2nc(-c3ccccc3)c3ccccc32)o1 [Compound I-84] ... 5.10
COC(=O)Cn1nc(-c2cccc(OCCC3CCCCC3)c2)c2ccccc21 [Compound I-141] ... 7.20
COC(=O)Cn1nc(-c2cccc(OCCN(C(C)C)C(C)C)c2)c2ccccc21 [Compound I-139] ... 6.00
COC(=O)Cn1nc(-c2cccc(F)c2F)c2ccccc21 [Compound I-130] ... 6.60

// lookup pIC50 | system=yeast (Saccharomyces cerevisiae) | key= COC(=O)Cn1nc(-c2cc(F)ccc2C)c2ccccc21 [Compound I-131] 6.40

Form field - read-out: pIC50; system: yeast (Saccharomyces cerevisiae); submitted item: c1ccc(-c2nn(Cc3c[nH]nn3)c3ccccc23)cc1 [Compound I-93] 4.60
